# System name: estrogen receptor consisting of calf uterus cytosol (Bos taurus, UniProt P49884)
# Construct: for the estrogen receptor consisting of calf uteri; from tissue; host or cells: calf uterus
# Sequence (P49884 whole entry): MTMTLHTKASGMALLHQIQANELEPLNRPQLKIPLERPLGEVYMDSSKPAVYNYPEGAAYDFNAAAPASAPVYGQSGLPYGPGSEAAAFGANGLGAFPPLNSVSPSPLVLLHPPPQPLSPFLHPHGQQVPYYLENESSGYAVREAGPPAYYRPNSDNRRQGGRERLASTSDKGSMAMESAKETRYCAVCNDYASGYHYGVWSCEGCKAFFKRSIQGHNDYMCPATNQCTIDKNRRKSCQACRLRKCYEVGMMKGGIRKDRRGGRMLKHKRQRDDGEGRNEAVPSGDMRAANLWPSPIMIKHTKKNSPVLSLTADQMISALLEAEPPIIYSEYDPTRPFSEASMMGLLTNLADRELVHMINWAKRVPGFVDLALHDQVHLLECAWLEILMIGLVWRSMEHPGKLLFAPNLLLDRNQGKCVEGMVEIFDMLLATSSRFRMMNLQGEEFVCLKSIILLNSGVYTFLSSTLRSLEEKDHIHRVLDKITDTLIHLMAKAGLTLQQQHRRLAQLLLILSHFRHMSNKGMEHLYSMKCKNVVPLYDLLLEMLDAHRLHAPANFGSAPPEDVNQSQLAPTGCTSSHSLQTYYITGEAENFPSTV
# Assay info: Relative binding affinity (RBA) for the estrogen receptor, displacement of 3H-17β-estradiol
# Condition description: RBA(17β-estradiol) = 100
Use 1 as the dividing line for RBA(*) relative binding affinity for the estrogen receptor, with the line itself on the yes side and lower values as no.

Please check the record Cc1c(-c2ccc(O)cc2)n(CCCCCCCCC[S+]([O-])CCCC(F)(F)C(F)(F)F)c2ccc(O)cc12 (centres unmarked) and state if its RBA(*) relative binding affinity for the estrogen receptor is at or above 1.
yes

And for CCCCCSCCCCCCCCCCn1c(-c2ccc(O)cc2)c(C)c2cc(O)ccc21 ?
no

And for CCCCCS(=O)(=O)CCCCOc1ccc(Cn2c(-c3ccc(O)cc3)c(C)c3cc(O)ccc32)cc1 ?
yes

And for Cc1c(-c2ccc(O)cc2)n(CCCCCCCCCCSCC(=O)N(C)C(C)C)c2ccc(O)cc12 ?
yes

And for Cc1c(-c2ccc(O)cc2)n(CCCCCCCCSc2ccccn2)c2ccc(O)cc12 ?
yes

And for CCCCCSCCCCCCCCCCn1c2c(c3cc(O)ccc31)CCc1cc(O)ccc1-2 ?
no

And for CCCCN(C)C(=O)CCCSCCCCCCn1c(-c2ccc(O)cc2)c(C)c2cc(O)ccc21 ?
yes

And for CCCCC[S+]([O-])CCCCCCCCCCn1c(-c2ccc(O)cc2)c(C)c2cc(O)ccc21 (centres unmarked) ?
yes

And for CCC[S+]([O-])CCCCCCCCCCCCn1c(-c2ccc(O)cc2)c(C)c2cc(O)ccc21 (centres unmarked) ?
yes

And for CCCS(=O)(=O)N(C)CCCCCCCCCCCn1c(-c2ccc(O)cc2)c(C)c2cc(O)ccc21 ?
yes

And for CCCCN(C)S(=O)(=O)CCCCCCCCCCn1c(-c2ccc(O)cc2)c(C)c2cc(O)ccc21 ?
yes

And for CCCS(=O)(=O)CCCCCCCCCCCCn1c(-c2ccc(O)cc2)c(C)c2cc(O)ccc21 ?
yes
